test system: K6 (normal: keratinocyte); assay: IC50 against cell lines: K6; conditions: Homo sapiens, read-out: IC50 ± SD against human cancer cell lines
assayReadout: IC50 (µM)
Record the value in µM, omitting the unit from your answer.

Query string: I'm curious: which IC50 was measured for COc1ccc(S(=O)(=O)N2CCc3cc(/C=C/C(=O)NO)cnc32)cc1 tested on K6 (normal: keratinocyte)?
Result string: 0.545

* * *

test system: LNCaP-R1 (prostate carcinoma); test: IC50 against human cancer cell lines: LNCaP-R1; conditions: read-out: IC50 ± SD against human cancer cell lines
This listing pairs molecules with measured pIC50.
Convention used: pIC50 is expressed as -log10 of the molar concentration.

>>> df
                                   molecule  readoutnumber
0  O=C(/C=C/c1cnc2c(ccn2S(=O)(=O)c2ccccc2)c1)NO [Compound 14a]           6.81

Turning to the following molecule.
Query string: Using the record for COc1ccc(S(=O)(=O)N2CCc3cc(/C=C/C(=O)NO)cnc32)cc1 , report its pIC50.
Result string: 6.82

* * *

system: H9 (T cell lymphoma); test: IC50 against human cancer cell lines: H9; conditions: read-out: IC50 ± SD against human cancer cell lines
assayReadout: pIC50
Convention used: pIC50 is expressed as -log10 of the molar concentration.

Query string: Using the record for COc1ccc(S(=O)(=O)N2CCc3cc(/C=C/C(=O)NO)cnc32)cc1 , report its pIC50.
Result string: 7.26

* * *

system: LNCaP104-R1 prostate cancer cells; test: Two dimensional cell growth inhibitory assay (MTT): LNCaP104-R1; details: Homo sapiens, 72 h, read-out: MTT IC50 ± SD
assayReadout: IC50 (nM)
Record the value in nM, omitting the unit from your answer.

>>> df
                             moleculesmiles  assayreadout  unitstext  readoutnumber
0  COc1ccc(S(=O)(=O)N2CCc3cc(/C=C/C(=O)NO)cnc32)cc1          IC50         nM            100

Turning to the following compound.
Query string: Using the record for O=C(/C=C/c1cccc(S(=O)(=O)n2ccc3cccnc32)c1)NO , report its IC50.
Result string: 1150

* * *

This listing pairs compounds with measured IC50.
test system: KB-L30 (KB-resistant); assay: IC50 against human cancer cell lines: KB-L30; conditions: read-out: IC50 ± SD against human cancer cell lines
Record the value in nM, omitting the unit from your answer.

Query string: Using the record for O=C(/C=C/c1cnc2c(ccn2S(=O)(=O)c2ccccc2)c1)NO [Compound 14a] , report its IC50.
Result string: 445

Query string: Follow-up item: COc1ccc(S(=O)(=O)N2CCc3cc(/C=C/C(=O)NO)cnc32)cc1 [Compound 5b]
Result string: 175

* * *

This listing pairs molecules with measured melting point.

>>> print(df.to_string())
                             moleculesmiles   assayreadout         result
0  O=C(/C=C/c1ccc(S(=O)(=O)n2ccc3ncccc32)cc1)NO  melting point  188 to 190 °C

Query string: Using the record for Nc1ccccc1NC(=O)c1ccc(Cn2ccc3cnccc32)cc1 , report its melting point.
Result string: 165 to 167 °C

Query string: Follow-up item: O=C(/C=C/c1cccc(S(=O)(=O)n2ccc3ccccc32)c1)NO
Result string: 188 to 191 °C

Query string: Follow-up item: O=C(/C=C/c1cccc(S(=O)(=O)n2ccc3ccncc32)c1)NO
Result string: 128 to 129 °C

Query string: Follow-up item: O=C(/C=C/c1ccc(S(=O)(=O)n2ccc3cccnc32)cc1)NO
Result string: 169 to 170 °C

Query string: Follow-up item: Nc1ccccc1NC(=O)c1ccc(CN2CCc3cccnc32)cc1
Result string: 105 to 107 °C

Query string: Follow-up item: Nc1ccccc1NC(=O)c1ccc(Cn2ncc3ccccc32)cc1
Result string: 185 to 188 °C

Query string: Follow-up item: O=C(/C=C/c1cccc(S(=O)(=O)N2CCc3cccnc32)c1)NO
Result string: 228 to 230 °C

Query string: Follow-up item: O=C(/C=C/c1cccc(S(=O)(=O)N2CCc3ccccc32)c1)NO
Result string: 207 to 209 °C

* * *

system: BJAB (B cell lymphoma); test: IC50 against human cancer cell lines: BJAB; conditions: read-out: IC50 ± SD against human cancer cell lines
assayReadout: pIC50
Convention used: pIC50 is expressed as -log10 of the molar concentration.

Query string: Using the record for COc1ccc(S(=O)(=O)N2CCc3cc(/C=C/C(=O)NO)cnc32)cc1 , report its pIC50.
Result string: 6.79

* * *

This listing pairs compounds with measured melting point.

                                   compound         result
0  Nc1ccccc1NC(=O)c1ccc(Cn2ccc3ccncc32)cc1 [Compound 19]  154 to 155 °C
1  O=C(/C=C/c1cccc(S(=O)(=O)n2ccc3ncccc32)c1)NO [Compound 5]  148 to 150 °C
2  O=C(/C=C/c1ccc(S(=O)(=O)N2CCc3cccnc32)cc1)NO [Compound 13]  220 to 223 °C
3  O=C(/C=C/c1ccc(S(=O)(=O)n2ccc3ccncc32)cc1)NO [Compound 11]  167 to 169 °C
4  Nc1ccccc1NC(=O)c1ccc(Cn2ccc3cccnc32)cc1 [Compound 20]  158 to 159 °C

Query string: Using the record for Nc1ccccc1NC(=O)c1ccc(Cn2ccc3ncccc32)cc1 [Compound 17] , report its melting point.
Result string: 116 to 118 °C

* * *

system: TSGH (gastric carcinoma); experiment: IC50 in human cancer cell lines (inhibiting HDAC): TSGH; conditions: read-out: IC50, inhibiting HDAC in human cancer cell lines
assayReadout: pIC50
Convention used: pIC50 is expressed as -log10 of the molar concentration.

Query string: Using the record for O=C(/C=C/c1cccc(S(=O)(=O)n2ccc3cccnc32)c1)NO , report its pIC50.
Result string: 5.68

* * *

test system: MCF-7 (breast carcinoma); test: IC50 in human cancer cell lines (inhibiting HDAC): MCF-7; conditions: MCF7, read-out: IC50, inhibiting HDAC in human cancer cell lines
assayReadout: IC50 (nM)
Record the value in nM, omitting the unit from your answer.

Query string: I'm curious: which IC50 was measured for O=C(/C=C/c1cccc(S(=O)(=O)n2ccc3cccnc32)c1)NO tested on MCF-7 (breast carcinoma)?
Result string: 1330

* * *

system: H460 (non-small-cell lung carcinoma); experiment: IC50 in human cancer cell lines (inhibiting HDAC): H460; settings: NCI-H460, read-out: IC50, inhibiting HDAC in human cancer cell lines
assayReadout: pIC50
Convention used: pIC50 is expressed as -log10 of the molar concentration.

Query string: Using the record for O=C(/C=C/c1cccc(S(=O)(=O)n2ccc3cccnc32)c1)NO [Compound 7] , report its pIC50.
Result string: 6.24
